target.desc: Human immunodeficiency virus type 1 reverse transcriptase (Human immunodeficiency virus 1, UniProt Q72547, K103N)

{"columns": ["smiles.text", "IC50"],
 "data": [
  ["O=C1Nc2ccccc2/C1=N/Nc1nc(-c2ccc(-c3ccccc3)cc2)cs1", "18.8 µM"]
]}

----------
target.desc: Human immunodeficiency virus type 1 reverse transcriptase (Human immunodeficiency virus 1, UniProt Q72547, Y181C)
pIC50: −log10 of the molar value.
reported.metric: pIC50

{"columns": ["smiles.text", "meas.value"],
 "data": [
  ["O=C1Nc2ccccc2/C1=N/Nc1nc(-c2ccc(-c3ccccc3)cc2)cs1", 5.57]
]}
